// data source = paper PMC4632759

target: B-Raf^V600E (Homo sapiens, UniProt P15056, V600E); experiment: B-Raf^V600E kinase inhibition (literature data set); assay type: biochemical; settings: −log IC50 of literature IC50
Sequence (P15056 whole entry V600E): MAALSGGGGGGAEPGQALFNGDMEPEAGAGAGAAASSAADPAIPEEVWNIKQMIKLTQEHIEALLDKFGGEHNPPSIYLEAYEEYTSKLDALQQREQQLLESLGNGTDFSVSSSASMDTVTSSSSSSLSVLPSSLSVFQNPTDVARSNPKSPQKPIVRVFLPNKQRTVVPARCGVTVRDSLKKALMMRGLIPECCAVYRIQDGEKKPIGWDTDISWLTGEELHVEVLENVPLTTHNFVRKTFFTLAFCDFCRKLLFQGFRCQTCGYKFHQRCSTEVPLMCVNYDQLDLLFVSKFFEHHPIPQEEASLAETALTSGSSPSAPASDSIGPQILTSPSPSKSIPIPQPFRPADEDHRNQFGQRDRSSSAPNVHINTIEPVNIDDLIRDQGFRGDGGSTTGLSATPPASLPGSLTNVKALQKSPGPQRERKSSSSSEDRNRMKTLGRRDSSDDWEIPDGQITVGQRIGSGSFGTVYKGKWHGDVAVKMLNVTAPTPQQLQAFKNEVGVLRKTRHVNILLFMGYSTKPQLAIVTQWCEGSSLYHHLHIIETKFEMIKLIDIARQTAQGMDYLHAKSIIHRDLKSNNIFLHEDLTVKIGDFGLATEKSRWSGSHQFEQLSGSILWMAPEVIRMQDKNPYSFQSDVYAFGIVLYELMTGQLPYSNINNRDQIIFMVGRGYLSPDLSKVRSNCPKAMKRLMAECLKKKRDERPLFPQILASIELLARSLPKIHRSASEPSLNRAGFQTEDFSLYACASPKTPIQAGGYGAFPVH
Each entry below carries its reported B-Raf Actual pIC50.
No unit in the answer, please; the number alone is enough.

N#Cc1c(Oc2ccc(F)c(NC(=O)Nc3cccc(C(F)(F)F)c3)c2)ccc2nc(NC(=O)C3CC3)sc12 | 7.31
N#Cc1c(Oc2cccc(NC(=O)Cc3cccc(C(F)(F)F)c3)c2)ccc2nc(NC(=O)C3CC3)sc12 | 8.89
CC(=O)Nc1nc2ccc(N(C)c3ccc(F)c(NC(=O)c4cccc(OC(C)(C)C#N)c4Cl)c3)nc2s1 | 7.35
CC(=O)Nc1nc2ccc(N(C)c3ccc(F)c(NC(=O)c4cccc(OC(C)(C)C#N)c4)c3)nc2s1 | 7.64
CC(C)(C#N)c1cccc(C(=O)Nc2cccc(Oc3ccc4nc(NC(=O)C5CC5)sc4c3C#N)c2)c1 | 7.89

Param item = `N#Cc1c(Oc2ccc(F)c(NC(=O)Nc3ccc(C(F)(F)F)cc3)c2)ccc2nc(NC(=O)C3CC3)sc12` ; retrieve measured B-Raf Actual pIC50. 7.59

Param item = `N#Cc1c(Oc2cccc(NC(=O)Nc3ccccc3C(F)(F)F)c2)ccc2nc(NC(=O)C3CC3)sc12` ; retrieve measured B-Raf Actual pIC50. 7.72

Param item = `N#Cc1c(Oc2cccc(NC(=O)Nc3ccc(C(F)(F)F)cc3)c2)ccc2nc(NC(=O)C3CC3)sc12` ; retrieve measured B-Raf Actual pIC50. 7.74

Param item = `N#Cc1c(Oc2cccc(NC(=O)Cc3ccccc3C(F)(F)F)c2)ccc2nc(NC(=O)C3CC3)sc12` ; retrieve measured B-Raf Actual pIC50. 7.85

Param item = `CC(C)(C#N)c1cccc(C(=O)Nc2cccc(Oc3ccc4nc(NC(=O)C5CC5)sc4c3CO)c2)c1` ; retrieve measured B-Raf Actual pIC50. 7.62

Param item = `COC(=O)c1c(Oc2cccc(NC(=O)c3cccc(C(C)(C)C#N)c3)c2)ccc2nc(NC(=O)C3CC3)sc12` ; retrieve measured B-Raf Actual pIC50. 7.92

Param item = `N#Cc1c(Oc2cccc(NC(=O)Cc3ccc(C(F)(F)F)cc3)c2)ccc2nc(NC(=O)C3CC3)sc12` ; retrieve measured B-Raf Actual pIC50. 8.02

Param item = `N#Cc1c(Oc2ccc(F)c(NC(=O)Cc3cccc(C(F)(F)F)c3)c2)ccc2nc(NC(=O)C3CC3)sc12` ; retrieve measured B-Raf Actual pIC50. 8.62

Param item = `CC(C)(C#N)c1cccc(C(=O)Nc2cccc(Oc3ccc4nc(NC(=O)C5CC5)sc4c3[N+](=O)[O-])c2)c1` ; retrieve measured B-Raf Actual pIC50. 7.60

----------
molecular target: B-Raf^V600E (Homo sapiens, UniProt P15056, V600E); assay: B-Raf^V600E inhibitory activity of designed new compounds (preliminary pharmacological evaluation); format: biochemical; conditions: preliminary biological tests
Each entry below carries its reported IC50.
Hi! Could you send only the number? It should be in nM, unit omitted.

CNC(=O)c1nc2ccc(C(=O)c3cccc(NC(=O)c4cccc(Cl)c4)c3)cc2[nH]1 [Compound D2] | 420

Turning now to a further record.
Param item = `CNC(=O)c1nc2ccc(C(=O)c3cccc(NC(=O)c4ccc(Cl)c(Cl)c4)c3)cc2[nH]1` ; retrieve measured IC50. 150

----------
Molecular target: B-Raf^V600E (Homo sapiens, UniProt P15056, V600E)
Test: B-Raf^V600E inhibitory activity of designed new compounds (preliminary pharmacological evaluation)
Type: biochemical
Settings: preliminary biological tests
From the text: The designed molecules were synthesized and the preliminary pharmacological evaluation would be used to verify the biological activity and our design strategy.
quantity-measured: IC50

Known results for molecules:
CNC(=O)c1nc2ccc(C(=O)c3cccc(NC(=O)c4cccc(F)c4)c3)cc2[nH]1 | > 5 µM
CCNC(=O)c1nc2ccc(C(=O)c3cccc(NC(=O)c4cccc(C(F)(F)F)c4)c3)cc2[nH]1 | > 5 µM

Turning now to a further record.
Param item = `O=C(Nc1cccc(C(=O)c2ccc3nc(C(=O)NC4CC4)[nH]c3c2)c1)Nc1cccc(C(F)(F)F)c1` ; retrieve measured IC50. > 5 µM
